# run description: chemical genetic growth profiling, strain panel (AID 1159580);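 further: tested at 20 µM; growth read once vehicle control cultures reached saturation at 30 °C; 1 = growth at the plate median or of vehicle wells; lower values mean less growth of the strain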
# test settings: S. cerevisiae deletion strains, growth OD, locus YGR252W, strain gcn5, hits give low values
In all, about 5,500 compounds went through this assay and about 2,000 (36%) were called active. Another 18% or so got no clear call; they are omitted. The list shows a part of the results.
Items are presented alongside their recorded normalized growth.
Output spec: single numeric token, no unit.

These recorded examples may help you get a feel for the data.
Data point: COC(=O)CCC(C)[C@H]1CCC2C3C(C[C@H](O)[C@@]21C)[C@@]1(C)CC[C@@H](O)C[C@H]1C[C@H]3O (stereo not given in full) ; normalized growth = 0.909

# normalized growth of COC(=O)CCC(C)C1CCC2C3CC[C@@H]4C[C@H](O)CC[C@]4(C)C3C[C@H](O)[C@]12C (stereo not given in full) = 0.887

Documented normalized growth of "Cc1cc(O)c(C)c2c1C(=O)Oc1c(C)c(O)c(C(=O)O)c(C)c1O2" : 0.961

Continuing:
The molecule CCN(CC)C(C)CN1c2ccccc2Sc2ccccc21 (stereo not given) showed normalized growth equal to 0.72

Record summary for CC(CN1c2ccccc2Sc2cccnc21)N(C)C (stereo not given) : reported normalized growth = 0.956

Sample "COc1cc([C@@H]2c3cc4c(cc3[C@H](OC(C)=O)[C@H]3COC(=O)[C@@H]23)OCO4)cc(OC)c1OC" ; normalized growth observed: 1.01

Lab note: CC(=O)O[C@H]1CC[C@]2(C)C3C(=O)[C@@H](OC(C)=O)[C@@]4(C)C(C[C@@H]5O[C@]6(CCC(C)CO6)[C@@H](C)[C@@H]54)C3CC[C@H]2C1 (stereo not given in full) gave normalized growth of 1.04

normalized growth reported for this molecule "CNCCCN1c2ccccc2CCc2ccccc21" : 0.94

"COc1ccc(C(=O)N2CCCC2=O)cc1" has a reported normalized growth of 1.05

Per the records, this molecule ( CCC(=O)c1ccc2c(c1)N(CC(C)N(C)C)c1ccccc1S2 (stereo not given) ) has normalized growth equal to 0.806
